STUDY_SYSTEM: T1, Peptide 8: Biotin-AEAAAKEAAAKEAAAKEAAAKAAA-Tyr-acid (N-terminal biotin; C-terminal acid; no PC)
T1 construct: control peptide without PC
T1 peptide: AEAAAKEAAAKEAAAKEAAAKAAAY
METHOD_DESCRIPTION: scFv ELISA
ASSAY_ENDPOINT: OD450 (OD450)
Give the quantity in OD450, number only.

Illustrative cases are given below, each with its answer.
{"columns": ["BINDER", "UNITS", "OD450"],
 "data": [
  ["PcOxP_DB01_E08 (scFv, V domains shown, scFv in periplasmic extract) VH: EVQLLESGGGLVQPGGSLRLSCAASGDTFSDFYMEWVRQAPGKGLEWVAASRNKANAYTTEYADSVKGRFTISRDNSKNTLYLQMNSLRAEDTAVYYCARDYYGQSYWYFDVWGQGTLVTVSS VL: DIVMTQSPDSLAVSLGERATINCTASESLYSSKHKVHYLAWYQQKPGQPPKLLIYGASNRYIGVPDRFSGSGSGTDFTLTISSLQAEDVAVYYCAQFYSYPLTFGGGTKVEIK", "OD450", 0.04],
  ["PcOxP_DB01_F03 (scFv, V domains shown, scFv in periplasmic extract) VH: EVQLLESGGGLVQPGGSLRLSCAASGFTFSDSYMEWVRQAPGKGLEWVAASRNKYNDYTTEYADSVKGRFTISRDNSKNTLYLQMNSLRAEDTAVYYCARDYYGSSYWYFDVWGQGTLVTVSS VL: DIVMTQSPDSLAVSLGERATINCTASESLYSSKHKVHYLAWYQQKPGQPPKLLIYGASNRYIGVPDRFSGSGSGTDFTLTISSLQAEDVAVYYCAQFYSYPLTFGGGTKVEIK", "OD450", 0.08],
  ["PcOxP_DB02_C08 (scFv, V domains shown, scFv in periplasmic extract) VH: EVQLLESGGGLVQPGGSLRLSCAASGFTFSDPYMEWVRQAPGKGLEWVAASRNKANDYTTEYADSVKGRFTISRDNSKNTLYLQMNSLRAEDTAVYYCARDYYGSPYWYFDVWGQGTLVTVSS VL: DIVMTQSPDSLAVSLGERATINCGASESLYSSKSKVHYLAWYQQKPGQPPKLLIYGASNRYIGVPDRFSGSGSGTDFTLTISSLQAEDVAVYYCAQFYSYPLTFGGGTKVEIK", "OD450", 0.04],
  ["PcOxP_DB02_E03 (scFv, V domains shown, scFv in periplasmic extract) VH: EVQLLESGGGLVQPGGSLRLSCAASGFTFSDYYMEWVRQAPGKGLEWVAASRWKANDYTTEYADSVKGRFTISRDNSKNTLYLQMNSLRAEDTAVYYCARDYYGSSQWYFDVWGQGTLVTVSS VL: DIVMTQSPDSLAVSLGERATINCTASESLYSSKHKKNYLAWYQQKPGQPPKLLIYGASWRYIGVPDRFSGSGSGTDFTLTISSLQAEDVAVYYCAQFYSYPLTFGGGTKVEIK", "OD450", 0.05]
]}

We next turn to a different binder, shown below.
Consider the binder PcOxP_DB04_A07 (scFv, V domains shown, scFv in periplasmic extract) VH: EVQLLESGGGLVQPGGSLRLSCAASGFTQSDFYMEWVRQAPGKGLEWVAASRNKANDYTTEYADSVKGRFTISRDNSKNTLYLQMNSLRAEDTAVYYCARDYYGSSYWYFDVWGQGTLVTVSS VL: DIQMTQSPSSLSASVGDRVTITCTASESLYSSKHKVHYLAWYQQKPGKAPKLLIYGISNRYIGVPSRFSGSGSGTDFTLTISSLQPEDFATYYCAQFYSYPLTFGGGTKVEIK and give its measured OD450.
0.05

Just for reference, patent US20250320312A1 is where these values come from.
